# System: rodent lifetime carcinogenesis bioassay, tumor incidence TD50
# PROTOCOL SUMMARY: carcinogenic potency in animals, long-term in vivo studies, CPDB compilation (AID 1745844)
# CONDITION LABEL: rat; strain Sprague-Dawley; females; inhaled; site: any site (literature study); lesion: several types; types named in the paper; dosed 104 weeks; study length 159 weeks
MEASUREMENT TYPE: TD50 (mg/kg/day)
Give your result in mg/kg/day as a bare value.

Quick check: TD50 on rodent lifetime carcinogenesis bioassay, tumor incidence TD50, item ClC=C(Cl)Cl ? 3890

----------
Recorded measurements of TD50, one per entry
# Test system: rodent lifetime carcinogenesis bioassay, tumor incidence TD50
# PROTOCOL SUMMARY: carcinogenic potency in animals, long-term in vivo studies, CPDB compilation (AID 1745844)
# CONDITION LABEL: mouse; strain B6C3F1; males; in feed; site: any site (literature study); lesion: several types; types named in the paper; dosed 103 weeks; study length 104 weeks
Give your result in mg/kg/day as a bare value.

> print(dat)
                            mol.smiles                        measurement.target  measurement.type  observed.measurement
1                  C=CCc1ccc(O)c(OC)c1  rodent lifetime carcinogenesis bioassay, tumor incidence TD50              TD50                  1550
2               CNC[C@H](O)c1cccc(O)c1  rodent lifetime carcinogenesis bioassay, tumor incidence TD50              TD50                  6330
3            c1ccc(Nc2ccc3ccccc3c2)cc1  rodent lifetime carcinogenesis bioassay, tumor incidence TD50              TD50                  4510
4  Nc1c(Br)cc(Br)c2c1C(=O)c1ccccc1C2=O  rodent lifetime carcinogenesis bioassay, tumor incidence TD50              TD50                   566

Param item = CCn1cc(C(=O)O)c(=O)c2ccc(C)nc21 ; retrieve measured TD50. 1330

OCCO , same question. 9980

Cc1ccc(N=Nc2c(O)ccc3ccccc23)c([N+](=O)[O-])c1 , same question. 9420

----------
# Tested on: rodent lifetime carcinogenesis bioassay, tumor incidence TD50
# PROTOCOL SUMMARY: carcinogenic potency in animals, long-term in vivo studies, CPDB compilation (AID 1745844)
# CONDITION LABEL: mouse; strain B6C3F1; females; inhaled; site: duodenum + Harderian gland + kidney + lung + mediastinum + mammary gland + mesenteric lymph node + multiple organs + spleen + uterus; lesion: malignant lymphoma, NOS + papillary cystadenoma, NOS + alveolar/bronchiolar adenoma + alveolar/bronchiolar carcinoma + adenocarc; dosed 102 weeks; study length 104 weeks
MEASUREMENT TYPE: TD50
Returns: string containing the number followed by the unit.

Quick check: TD50 on rodent lifetime carcinogenesis bioassay, tumor incidence TD50, item C1CO1 ? 39.2 mg/kg/day

----------
# Test system: rodent lifetime carcinogenesis bioassay, tumor incidence TD50
# PROTOCOL SUMMARY: carcinogenic potency in animals, long-term in vivo studies, CPDB compilation (AID 1745844)
# CONDITION LABEL: rat; strain Fischer 344; males; by gavage; site: kidney; lesion: adenocarcinoma; dosed 52 weeks; study length 52 weeks
MEASUREMENT TYPE: TD50

Param item = O=P(OCC(Br)CBr)(OCC(Br)CBr)OCC(Br)CBr (stereo unspecified) ; retrieve measured TD50. 54.8 mg/kg/day
